Provide the recorded pKi for the entries that follow.
system_name: PKC delta kinase (Homo sapiens, UniProt Q05655)
Sequence (Q05655 whole entry): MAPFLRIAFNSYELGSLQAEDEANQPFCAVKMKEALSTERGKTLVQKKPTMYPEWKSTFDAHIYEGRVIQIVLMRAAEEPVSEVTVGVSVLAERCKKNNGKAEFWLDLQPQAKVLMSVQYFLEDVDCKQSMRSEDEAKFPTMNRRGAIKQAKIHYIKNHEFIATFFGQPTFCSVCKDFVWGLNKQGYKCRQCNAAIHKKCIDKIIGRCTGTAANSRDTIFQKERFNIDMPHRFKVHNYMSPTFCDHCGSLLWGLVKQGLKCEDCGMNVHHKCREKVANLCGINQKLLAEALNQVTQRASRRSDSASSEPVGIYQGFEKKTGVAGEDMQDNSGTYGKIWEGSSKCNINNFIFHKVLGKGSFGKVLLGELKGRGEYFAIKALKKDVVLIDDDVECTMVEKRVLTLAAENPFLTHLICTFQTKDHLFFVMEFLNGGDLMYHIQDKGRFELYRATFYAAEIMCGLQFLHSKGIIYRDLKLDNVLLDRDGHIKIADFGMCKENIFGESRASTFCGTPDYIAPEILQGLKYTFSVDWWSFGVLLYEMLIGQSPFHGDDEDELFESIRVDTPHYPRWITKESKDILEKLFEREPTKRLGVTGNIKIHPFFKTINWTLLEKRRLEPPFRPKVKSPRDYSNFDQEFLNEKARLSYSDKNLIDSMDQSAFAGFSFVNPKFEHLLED
measurement_notes: PKC Delta coupled-enzyme kinase assay
Type: biochemical
reported_conditions: 46 nM PKC delta, 150 μM ATP, 30° C.; read-out: Ki PKC delta
pKi: −log10 of the molar value.

In plain terms, Nc1ncccc1C(=O)c1nc(N2CCNCC2)ccc1C(F)(F)F has a documented pKi of 6.30 to 7.30

In plain terms, Nc1ncc(Br)cc1C(=O)c1cccc(N2CCCN(C(=O)c3ccccc3C(F)(F)F)CC2)n1 has a documented pKi of 6.30 to 7.30

In plain terms, CC(C)[C@@H]1CNCCN1c1cccc(C(=O)c2cccnc2N)n1 has a documented pKi of 6.30 to 7.30

In plain terms, Nc1ncccc1C(=O)c1cccc(N2CCNC(c3ccccc3Cl)C2)n1 (centres unmarked) has a documented pKi of 6.30 to 7.30

In plain terms, CCc1ccc(N2CCNCC2)nc1C(=O)c1cccnc1N has a documented pKi of 6.30 to 7.30

In plain terms, Nc1ncccc1C(=O)c1nccc(N2CCNC(c3ccccc3)C2)n1 (centres unmarked) has a documented pKi of < 5.55

In plain terms, NCC1CCCN(c2cccc(C(=O)c3cccnc3N)n2)C1 (centres unmarked) has a documented pKi of < 5.55

In plain terms, C=Cc1cnc(N)c(C(=O)c2cncc(N3CCCNCC3)n2)c1 has a documented pKi of 6.30 to 7.30

In plain terms, Nc1ncc(-c2ccc(O)cc2)cc1C(=O)c1cccc(N2CCCNCC2)n1 has a documented pKi of 6.30 to 7.30

In plain terms, N#Cc1cccc(-c2cnc(N)c(C(=O)c3cccc(N4CCNC(c5ccccc5)C4)n3)c2)c1 (centres unmarked) has a documented pKi of 6.30 to 7.30

In plain terms, Nc1ncccc1C(=O)c1nc(N2CCNCC2)ccc1C#CC1CC1 has a documented pKi of 5.55 to 6.30

In plain terms, Nc1ncccc1C(=O)c1cccc(N2CCNC(Cc3cnc[nH]3)C2)n1 (centres unmarked) has a documented pKi of 5.55 to 6.30

In plain terms, CNCCN(C)c1ccc(C(F)(F)F)c(C(=O)c2cccnc2N)n1 has a documented pKi of 5.55 to 6.30

In plain terms, N#Cc1cnc(N)c(C(=O)c2cccc(N3CCCNCC3)n2)c1 has a documented pKi of 5.55 to 6.30

In plain terms, Cc1cnc(N)c(C(=O)c2cccc(N3CCCNCC3)n2)c1 [compound 155, bis(2,2,2-trifluoroacetate)] has a documented pKi of 5.55 to 6.30

In plain terms, Nc1ncccc1C(=O)c1cccc(N2CCNC(CO)C2)n1 (centres unmarked) has a documented pKi of 6.30 to 7.30

In plain terms, CC(=O)c1ccc(N2CCN[C@@H](CC(C)C)C2)nc1C(=O)c1cccnc1N has a documented pKi of 5.55 to 6.30

In plain terms, Nc1ncc(-c2cc[nH]c2)cc1C(=O)c1cccc(N2CCNC(c3ccccc3)C2)n1 (centres unmarked) has a documented pKi of 6.30 to 7.30

In plain terms, C=Cc1cnc(N)c(C(=O)c2cccc(N3CCCN(C(=O)CC(F)(F)F)CC3)n2)c1 has a documented pKi of 6.30 to 7.30

In plain terms, C=Cc1cnc(N)c(C(=O)c2nc(N3CCNC(c4ccccc4)C3)ccc2C(F)(F)F)c1 (centres unmarked) has a documented pKi of 6.30 to 7.30

In plain terms, Nc1ncccc1C(=O)c1nc(NC2CCCCC2N)ccc1C(F)(F)F (centres unmarked) has a documented pKi of 5.55 to 6.30

In plain terms, Cc1cc(C)c(CC2CN(c3cccc(C(=O)c4cccnc4N)n3)CCN2)c(C)c1 (centres unmarked) has a documented pKi of < 5.55

In plain terms, Nc1ncccc1C(=O)c1nc(N2CCCNCC2)ccc1Cl has a documented pKi of 6.30 to 7.30

In plain terms, Nc1ncc(-c2ccncc2)cc1C(=O)c1cccc(N2CCNC(c3ccccc3)C2)n1 (centres unmarked) has a documented pKi of 5.55 to 6.30

In plain terms, Nc1ncccc1C(=O)c1cncc(N2CCC(N)CC2)n1 has a documented pKi of 5.55 to 6.30

In plain terms, Cc1cc(N)n(-c2ccc(C(F)(F)F)c(C(=O)c3cccnc3N)n2)n1 has a documented pKi of 5.55 to 6.30

In plain terms, CCc1ccc(N2CCNC(c3ccccc3)C2)nc1C(=O)c1cccnc1N (centres unmarked) has a documented pKi of 6.30 to 7.30

In plain terms, C=Cc1cnc(N)c(C(=O)c2nc(N3CCNC(c4ccccc4)C3)ccc2Cl)c1 (centres unmarked) has a documented pKi of 6.30 to 7.30

In plain terms, Cc1sc(N2CCNC[C@H]2C)nc1C(=O)c1cccnc1N has a documented pKi of 5.55 to 6.30

In plain terms, Nc1cccc(-c2cnc(N)c(C(=O)c3cccc(N4CCCNCC4)n3)c2)c1 has a documented pKi of 6.30 to 7.30

In plain terms, N#Cc1ccc(-c2cnc(N)c(C(=O)c3cccc(N4CCNC(c5ccccc5)C4)n3)c2)cc1 (centres unmarked) has a documented pKi of 6.30 to 7.30

In plain terms, Nc1ncccc1C(=O)c1nc(NC2CCNC2)ccc1C(F)(F)F (centres unmarked) has a documented pKi of 5.55 to 6.30

In plain terms, Nc1ncccc1C(=O)c1cccc(N2CCNC(c3cccnc3)C2)n1 (centres unmarked) has a documented pKi of 6.30 to 7.30

In plain terms, CC1(N)CCN(c2cccc(C(=O)c3cccnc3N)n2)CC1 has a documented pKi of 6.30 to 7.30

In plain terms, CC(C)(N)CNc1ccc(C(F)(F)F)c(C(=O)c2cccnc2N)n1 has a documented pKi of 5.55 to 6.30

----------
system_name: PKC delta kinase (Homo sapiens, UniProt Q05655)
measurement_notes: PKC Delta coupled-enzyme kinase assay
Type: biochemical
reported_conditions: 46 nM PKC delta, 150 μM ATP, 30° C.; read-out: Ki PKC delta
pKi: −log10 of the molar value.
measured_attribute: pKi

In plain terms, CC(C)[C@H](N)CNc1ccc(C(F)(F)F)c(C(=O)c2cccnc2N)n1 has a documented pKi of 5.55 to 6.30

In plain terms, Nc1ncc(/C=C/c2ccccc2)cc1C(=O)c1cccc(N2CCNC(c3ccccc3)C2)n1 (centres unmarked) has a documented pKi of 6.30 to 7.30

In plain terms, CC(C)(C)C(O)C(=O)N1CCCN(c2cccc(C(=O)c3cccnc3N)n2)CC1 (centres unmarked) has a documented pKi of < 5.55

In plain terms, Nc1ncc(-c2ccc[nH]2)cc1C(=O)c1cccc(N2CCCNCC2)n1 has a documented pKi of 6.30 to 7.30

In plain terms, Nc1ncccc1C(=O)c1nc(NC2CCCC(N)C2)ccc1C(F)(F)F (centres unmarked) has a documented pKi of 5.55 to 6.30

In plain terms, NCCCCNc1ccc(C(F)(F)F)c(C(=O)c2cccnc2N)n1 has a documented pKi of 5.55 to 6.30

In plain terms, Cc1ccccc1C1CN(c2cccc(C(=O)c3cccnc3N)n2)CCN1 (centres unmarked) has a documented pKi of 6.30 to 7.30

In plain terms, Nc1ncccc1C(=O)c1cccc(N2CCCN(C(=O)c3sccc3Cl)CC2)n1 has a documented pKi of 5.55 to 6.30

----------
What follows is a record of Ki for PKC alpha kinase (Homo sapiens, UniProt P17252).

In plain terms, CCc1ccc(N2CCNC(c3ccccc3)C2)nc1C(=O)c1cccnc1N (stereo not drawn) has a documented Ki of 500 to 2800 nM

In plain terms, Nc1ncccc1C(=O)c1nc(Cl)cnc1N1CCNCC1 has a documented Ki of > 2800 nM

In plain terms, Nc1ncccc1C(=O)c1nc(N2CCNC(c3ccccc3)C2)ccc1C#CC1CC1 (stereo not drawn) has a documented Ki of 500 to 2800 nM

In plain terms, C=Cc1cnc(N)c(C(=O)c2nc(N3CCNCC3)ccc2C(F)(F)F)c1 has a documented Ki of < 50 nM

In plain terms, Nc1ncc(-c2ccccc2)cc1C(=O)c1cccc(N2CCCNCC2)n1 has a documented Ki of < 50 nM

In plain terms, Nc1ncccc1C(=O)c1nc(N2CCNCC2)cnc1Cl has a documented Ki of 500 to 2800 nM

In plain terms, NCCCCNc1ccc(C(F)(F)F)c(C(=O)c2cccnc2N)n1 has a documented Ki of 500 to 2800 nM

In plain terms, Nc1ncccc1C(=O)c1nc(NC2CCNC2)ccc1C(F)(F)F (stereo not drawn) has a documented Ki of 500 to 2800 nM

In plain terms, Nc1ncccc1C(=O)c1nc(NC2CCCNC2)ccc1C(F)(F)F (stereo not drawn) has a documented Ki of 500 to 2800 nM

In plain terms, CC(C)[C@H]1CN(c2ccc(C(F)(F)F)c(C(=O)c3cccnc3N)n2)CCN1 has a documented Ki of 500 to 2800 nM

In plain terms, CC(C)=Cc1cnc(N)c(C(=O)c2cccc(N3CCCNCC3)n2)c1 has a documented Ki of < 50 nM

In plain terms, Nc1ncccc1C(=O)c1cccc(N2CCCN(C(=O)c3sccc3Cl)CC2)n1 has a documented Ki of 500 to 2800 nM

In plain terms, C=Cc1cnc(N)c(C(=O)c2cccc(N3CCCNCC3)n2)c1 has a documented Ki of < 50 nM

In plain terms, C=Cc1cnc(N)c(C(=O)c2nc(N3CCNCC3)ccc2Cl)c1 has a documented Ki of < 50 nM

In plain terms, Nc1ncccc1C(=O)c1nccc(N2CCNCC2)n1 has a documented Ki of > 2800 nM
